Assay: Rat hepatocyte clearance
Assay type: in vitro ADME
This listing pairs molecules with measured Rat hepatocytes CLint.
Value expressed in µl/min/1x106 cells; do not type the unit.

These recorded examples may help you get a feel for the data.
molecule | measured.parameter | recorded.measurement
Cc1nccc(N2CCC(C(=O)N3CCCN(S(=O)(=O)c4ccc(Br)cc4)CC3)CC2)n1 [1B] | Rat hepatocytes CLint | 24.8
CN(CC1CCCC(=O)N1)c1cc(OCc2ccccc2)nc(-c2nccn2C)n1 (stereo not shown) [3B] | Rat hepatocytes CLint | 218.6

Now look at this one.
Prompt line: Given O=C1NCCCc2nc(N3CCN(c4ccccc4F)CC3)sc21 [6A] , state its recorded Rat hepatocytes CLint.
Response line: 55.1
